Hey, just so you know, these numbers are from patent US20120316071A1.

Biological target: T1, rHuman ErbB2/Fc Chimera, CF (R&D Systems Cat#1129-ER) (human, UniProt P04626 23-652)
T1 construct: Bought recombinant protein; also called human epidermal growth factor 2 receptor
Test: ECL multispot (MSD) binding assay, antigen spotted on plate;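 note: purified Fab incubated 1 h at 20 °C on antigen spots, detected with TAG-labelled antibody, electrochemiluminescence compared with each well's blank, signal-to-blank ratio ≥4 counted as hit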
Please respond with reported ECL signal for every item in the list.
Numbers only.

Known results for binders:
Would you mind telling me what ECL signal value was observed for Fab VH1-46_IGHD6-6*01_IGHJ1*01 S102A/S103P/S104F/H111F (APFF) & L6_IGKJ1*01 S31I (Fab, V domains shown, Tested as Fab (CH1 with His6/Flag tags, kappa CL) made in E. coli; also called APFF / S31I) VH: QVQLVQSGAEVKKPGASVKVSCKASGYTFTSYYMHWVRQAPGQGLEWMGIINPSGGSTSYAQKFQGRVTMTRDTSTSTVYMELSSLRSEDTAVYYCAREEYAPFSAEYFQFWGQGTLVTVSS VL: EIVLTQSPATLSLSPGERATLSCRASQSVSIYLAWYQQKPGQAPRLLIYDASNRATGIPARFSGSGSGTDFTLTISSLEPEDFAVYYCQQRSNWPPWTFGQGTKVEIKR ?
222

Would you mind telling me what ECL signal value was observed for Fab VH1-46_IGHD6-6*01_IGHJ1*01 S102A/S103P/S104F/H111F (APFF) & L6_IGKJ1*01 S31L (Fab, V domains shown, Tested as Fab (CH1 with His6/Flag tags, kappa CL) made in E. coli; also called APFF / S31L) VH: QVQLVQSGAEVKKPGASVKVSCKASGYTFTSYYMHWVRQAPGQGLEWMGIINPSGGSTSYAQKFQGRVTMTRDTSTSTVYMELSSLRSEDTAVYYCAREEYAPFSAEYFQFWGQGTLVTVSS VL: EIVLTQSPATLSLSPGERATLSCRASQSVSLYLAWYQQKPGQAPRLLIYDASNRATGIPARFSGSGSGTDFTLTISSLEPEDFAVYYCQQRSNWPPWTFGQGTKVEIKR ?
288

Please look at the following binder next.
Would you mind telling me what ECL signal value was observed for Fab VH1-46_IGHD6-6*01_IGHJ1*01 S102A/S103P/S104F/H111F (APFF) & L6_IGKJ1*01 S31D (Fab, V domains shown, Tested as Fab (CH1 with His6/Flag tags, kappa CL) made in E. coli; also called APFF / S31D) VH: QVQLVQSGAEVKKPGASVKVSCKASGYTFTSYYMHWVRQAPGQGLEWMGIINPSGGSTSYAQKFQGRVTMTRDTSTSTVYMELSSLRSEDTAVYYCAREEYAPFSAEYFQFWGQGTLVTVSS VL: EIVLTQSPATLSLSPGERATLSCRASQSVSDYLAWYQQKPGQAPRLLIYDASNRATGIPARFSGSGSGTDFTLTISSLEPEDFAVYYCQQRSNWPPWTFGQGTKVEIKR ?
479
